- Test system: Enterobacter cloacae MA 2646
- procedure_details: In vitro antibacterial activity, microtitration dilution method (MIC)
- Assay type: cell-based
- condition: MA2646; Enterobacter cloacae MA 2646, microtitration dilution; read-out: Minimal Inhibitory Concentration MIC
Please provide measured MIC for the entries that follow.
Numbers only, in µg/mL.

Challenge: // MIC lookup, key: Cc1c(F)c(N2CCNC(C)C2)cc2c1c(=O)c(C(=O)O)cn2-c1ccc(F)cc1F (centres unmarked) [Ex. 17a]
Response given: 0.2

Challenge: // MIC lookup, key: Cc1c(F)c(N2CCC(N)C2)nc2c1c(=O)c(C(=O)O)cn2C1CC1 (centres unmarked) [Ex. 18]
Response given: 0.013

Hi! Can you tell me MIC for each of these molecules?
1. Cc1c(F)c(N2CCNCC2)cc2c1c(=O)c(C(=O)O)cn2-c1ccc(F)cc1F [Ex. 17]
2. Cc1c(F)c(N2CCC(N)C2)c(F)c2c1c(=O)c(C(=O)O)cn2C1CC1 (centres unmarked) [Ex. 2]
3. Cc1c(F)c(N2CC(C)NC(C)C2)c(F)c2c1c(=O)c(C(=O)O)cn2-c1ccc(F)cc1F (centres unmarked) [Ex. 14a]

Response given:
[0.05, 0.006, 0.4]

====

Please provide measured MIC for the entries that follow.
- Test system: Escherichia coli Vogel
- procedure_details: In vitro antibacterial activity, microtitration dilution method (MIC)
- Assay type: cell-based
- condition: Escherichia coli Vogel, microtitration dilution; read-out: Minimal Inhibitory Concentration MIC
One number for each entry, in µg/mL.

Some solved cases for reference:
Challenge: // MIC lookup, key: Cc1c(F)c(N2CCC(C)(CN)C2)cc2c1c(=O)c(C(=O)O)cn2-c1ccc(F)cc1F (stereo not drawn) [Ex. 17e]
Response given: 0.4

Challenge: // MIC lookup, key: Cc1c(F)c(N2CCNCC2)c(Cl)c2c1c(=O)c(C(=O)O)cn2C1CC1
Response given: 0.025

Hi! Can you tell me MIC for each of these molecules?
1. Cc1c(F)c(N2CCNC(C)C2)c(F)c2c1c(=O)c(C(=O)O)cn2C1CC1 (stereo not drawn)
2. Cc1c(F)c(N2CCNCC2)nc2c1c(=O)c(C(=O)O)cn2C1CC1
3. Cc1c(F)c(N2CC[C@@H]([C@H](C)N)C2)nc2c1c(=O)c(C(=O)O)cn2-c1ccc(F)cc1F
4. CCNCC1CCN(c2c(F)c(C)c3c(=O)c(C(=O)O)cn(C4CC4)c3c2F)C1 (stereo not drawn)
5. Cc1c(F)c(N2CCNC(C)C2)cc2c1c(=O)c(C(=O)O)cn2C1CC1 (stereo not drawn)
6. Cc1c(F)c(N2CCC(N)C2)nc2c1c(=O)c(C(=O)O)cn2-c1ccc(F)cc1F (stereo not drawn)
7. Cc1c(F)c(N2CCC(N)C2)nc2c1c(=O)c(C(=O)O)cn2C1CC1 (stereo not drawn)
8. Cc1c(F)c(N2CCNCC2)c(F)c2c1c(=O)c(C(=O)O)cn2-c1ccc(F)cc1F

Response given:
1: 0.05; 2: 0.013; 3: 0.1; 4: 0.05; 5: 0.013; 6: 0.05; 7: 0.013; 8: 0.05

====

- Test system: Streptococcus pyogenes C-203
Please provide measured MIC for the entries that follow.
Numbers only, in µg/mL.

Some solved cases for reference:
Challenge: // map Cc1c(F)c(N2CCC(N)C2)nc2c1c(=O)c(C(=O)O)cn2C1CC1 (stereo not shown) [Ex. 18] to recorded MIC (system: Streptococcus pyogenes C-203)
Response given: 0.025

Challenge: // map Cc1c(F)c(N2CC(C)NC(C)C2)c(F)c2c1c(=O)c(C(=O)O)cn2-c1ccc(F)cc1F (stereo not shown) [Ex. 14a] to recorded MIC (system: Streptococcus pyogenes C-203)
Response given: 1.6

Challenge: // map Cc1c(F)c(N2CCC(N)C2)cc2c1c(=O)c(C(=O)O)cn2C1CC1 (stereo not shown) [Ex. 8] to recorded MIC (system: Streptococcus pyogenes C-203)
Response given: 0.025

Challenge: // map Cc1c(F)c(N2CCC(C)(CN)C2)cc2c1c(=O)c(C(=O)O)cn2C1CC1 (stereo not shown) [Ex. 9] to recorded MIC (system: Streptococcus pyogenes C-203)
Response given: 0.013

Challenge: // map Cc1c(F)c(N2CCNC(C)C2)cc2c1c(=O)c(C(=O)O)cn2C1CC1 (stereo not shown) [Ex. 7] to recorded MIC (system: Streptococcus pyogenes C-203)
Response given: 0.05

Hi! Can you tell me MIC for each of these molecules?
1. CCNCC1CCN(c2c(F)c(C)c3c(=O)c(C(=O)O)cn(C4CC4)c3c2F)C1 (stereo not shown) [Ex. 3]
2. Cc1c(F)c(N2CCC(C)(CN)C2)cc2c1c(=O)c(C(=O)O)cn2-c1ccc(F)cc1F (stereo not shown) [Ex. 17e]

Response given:
[0.006, 0.025]
